Listed here are compounds together with their documented Preemergence herbicidal rating IPOHE.
# Tested on: IPOHE (Morningglory, Ivyleaf)
# TEST_DESCRIPTION: Preemergence herbicidal evaluation
# Assay type: in vivo, Ipomoea hederacea
# EXPERIMENTAL_CONTEXT: rate 0.0625 kg/ha; rated 4-5 weeks after treatment
Answer with a bare number; do not write a unit.

COMPOUND	OBSERVED_PROPERTY	EXPERIMENTAL_VALUE
CCOC(=O)CN1C(=O)C(CC(=O)O)SC1=Nc1cc(-n2nc(C)n(C(F)F)c2=O)c(F)cc1Cl (stereo not drawn) [Compound 112]	Preemergence herbicidal rating IPOHE	0.0
Cn1c(C(F)(F)F)cc(=O)n(-c2cc(N=C3SCC(=O)N3CC(=O)OCC#N)c(Cl)cc2F)c1=O [Compound 109]	Preemergence herbicidal rating IPOHE	5.0
CCOC(=O)CN1C(=O)C(CC(=O)NS(=O)(=O)C(C)C)SC1=Nc1cc(-n2c(=O)cc(C(F)(F)F)n(C)c2=O)c(F)cc1Cl (stereo not drawn) [Compound 117]	Preemergence herbicidal rating IPOHE	0.0
CCOC(=O)CN1C(=O)C(C(=O)OCC)SC1=Nc1cc(-n2c(=O)cc(C(F)(F)F)n(C)c2=O)c(F)cc1Cl (stereo not drawn) [Compound 127]	Preemergence herbicidal rating IPOHE	0.0
CCOC(=O)CN1C(=O)C(Cl)SC1=Nc1cc(-n2c(=O)cc(C(F)(F)F)n(C)c2=O)c(F)cc1Cl (stereo not drawn) [Compound 126]	Preemergence herbicidal rating IPOHE	0.0

// next item, Preemergence herbicidal rating IPOHE requested
Lookup result for CCOC(=O)CN1CCSC1=Nc1cc(-n2nc(C)n(C(F)F)c2=O)c(F)cc1Cl [Compound 36] ; measured Preemergence herbicidal rating IPOHE: 0.0

// data source = patent US20020137929A1
